Measured Population Fragmented Nuclei (%), listed per entry for reference.
- Tested on: U2OS
- Procedure Text: Multiplex assay against U2OS
- Type: toxicity, cell-based
- Settings: human, 12 h, 1 µM, compound concentration 1 uM, replicate 1
Measurement Kind: Population Fragmented Nuclei (%)

[[record]]
compound = "O=C(O)c1cc2ccccc2c(Cc2c(O)c(C(=O)O)cc3ccccc23)c1O"
tested_target = "U2OS"
reported = 23

[[record]]
compound = "CSCC[C@H](NC=O)C(=O)N[C@@H](CC(C)C)C(=O)N[C@@H](Cc1ccccc1)C(=O)O"
tested_target = "U2OS"
reported = 29

[[record]]
compound = "Cc1ccc(-c2ccc(F)cc2COc2ccc(CCC(=O)O)cc2)cc1"
tested_target = "U2OS"
reported = 22

[[record]]
compound = "Cc1ccccc1C(=O)Nc1ccc(C(=O)N2CCCC(N(C)C)c3ccccc32)cc1.Cl (centres undefined)"
tested_target = "U2OS"
reported = 20

[[record]]
compound = "O=C(O)Cc1ccccc1Nc1c(Cl)cccc1Cl"
tested_target = "U2OS"
reported = 15

[[record]]
compound = "N[C@@]1(C(=O)O)CO[C@H]2[C@H](C(=O)O)[C@H]21"
tested_target = "U2OS"
reported = 20

[[record]]
compound = "Cc1ccc(/C(=C\\CN2CCCC2)c2ccccn2)cc1"
tested_target = "U2OS"
reported = 29

[[record]]
compound = "CCCn1c(=O)c2[nH]c(C3CCCC3)nc2n(CCC)c1=O"
tested_target = "U2OS"
reported = 25

[[record]]
compound = "Cl.Clc1ccc2nsnc2c1NC1=NCCN1 [TIZANIDINE HYDROCHLORIDE]"
tested_target = "U2OS"
reported = 20

[[record]]
compound = "c1cc(OCCCN2CCCCC2)ccc1CN1CCCCC1"
tested_target = "U2OS"
reported = 29

[[record]]
compound = "CN(C)c1ccnc2sc3c(=O)n(N4CCCCCC4)cnc3c12"
tested_target = "U2OS"
reported = 19

[[record]]
compound = "CNC[C@H](O)c1ccc(O)c(O)c1 [EPINEPHRINE]"
tested_target = "U2OS"
reported = 35

[[record]]
compound = "CC(C)(C)c1ccc(S(=O)(=O)Nc2ccc(Cl)cc2C(=O)c2cc[n+]([O-])cc2)cc1"
tested_target = "U2OS"
reported = 28

[[record]]
compound = "O=C1COc2nccc(-c3ccccc3F)c2CN1Cc1cc(C(F)(F)F)cc(C(F)(F)F)c1"
tested_target = "U2OS"
reported = 19

[[record]]
compound = "O=S(=O)(c1ccccc1)c1cnc2c(N3CCNCC3)cccc2c1 [INTEPIRDINE]"
tested_target = "U2OS"
reported = 23

[[record]]
compound = "CCNC1(C(N)=O)CCN(c2ncnc3c2nc(-c2ccccc2Cl)n3-c2ccc(Cl)cc2)CC1"
tested_target = "U2OS"
reported = 30

[[record]]
compound = "COc1ccc2c(c1)C(C(=O)N(Cc1ccc(N(C)C)cc1)c1ccc(C(C)C)cc1)CCC2.Cl (centres undefined)"
tested_target = "U2OS"
reported = 36

[[record]]
compound = "C[C@H]1[C@H]2CC[C@H]3[C@@H]4CC=C5C[C@@H](N(C)C)CC[C@]5(C)[C@H]4CC[C@]23CN1C"
tested_target = "U2OS"
reported = 23

[[record]]
compound = "O=C(NCCO)c1cccc(-c2cc(Nc3ccc(OC(F)(F)F)cc3)ncn2)c1"
tested_target = "U2OS"
reported = 13

[[record]]
compound = "Oc1c(CN2CCN(c3ccccn3)CC2)cc(Cl)c2cccnc12"
tested_target = "U2OS"
reported = 24

[[record]]
compound = "CN(C)CCCc1cc(C(=O)Nc2ccc(-c3ccncc3)cc2)ccc1O.Cl.Cl"
tested_target = "U2OS"
reported = 29

[[record]]
compound = "N#Cc1c(N)nc(SCc2csc(-c3ccc(Cl)cc3)n2)c(C#N)c1-c1ccc(OCCO)cc1"
tested_target = "U2OS"
reported = 25

[[record]]
compound = "Cc1nc2ccc(Oc3ccc(F)cc3)cc2c(=O)n1C[C@H]1CCCN(C(C)C)C1.Cl"
tested_target = "U2OS"
reported = 25

[[record]]
compound = "CCCN1CCC[C@@H]2Cc3n[nH]cc3C[C@H]21.Cl [QUINPIROLE HYDROCHLORIDE]"
tested_target = "U2OS"
reported = 31

